Entry source: the Human Domainome abundance scans (Beltran et al. 2025)

B1: Tudor domain-containing protein 3, residues 554 to 611; numbered along this chain, Q9H7E2 (parent)
chain: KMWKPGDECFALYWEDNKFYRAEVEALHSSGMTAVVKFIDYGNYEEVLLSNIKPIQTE

# Variants of: B1
# Method Summary: abundance fitness (aPCA) (normalised: wild type 0, dead -1); higher = more abundant; growth selection in yeast, the domain comes from the species named
# Measurement Setup: Homo sapiens
Lab note: class by abundance fitness, see range A = under -0.3, range B = from -0.3 up to -0.03, range C = -0.03 and over

Field: example entries. Status: answers known.
[[record]]
variant_string = "V24M"
classification = "range A"

[[record]]
variant_string = "P5H"
classification = "range B"

[[record]]
variant_string = "P5V"
classification = "range B"

[[record]]
variant_string = "W14Q"
classification = "range C"

[[record]]
variant_string = "Y44V"
classification = "range C"

[[record]]
variant_string = "K53D"
classification = "range A"

[[record]]
variant_string = "Y41C"
classification = "range C"

[[record]]
variant_string = "F10Q"
classification = "range C"

[[record]]
variant_string = "Y44P"
classification = "range A"

[[record]]
variant_string = "N43V"
classification = "range C"


Enquiry: Which bin should I file "F19H" under?
Return: range A

Enquiry: Which bin should I file "W14D" under?
Return: range C

Enquiry: Which bin should I file "H28Q" under?
Return: range B

Enquiry: Which bin should I file "E58Y" under?
Return: range B

Enquiry: Which bin should I file "V24R" under?
Return: range A
